From: the RNAGym collection of RNA variant scans (doi:10.7554/elife.80360)

B1: Hairpin Ribozyme (parent)
chain: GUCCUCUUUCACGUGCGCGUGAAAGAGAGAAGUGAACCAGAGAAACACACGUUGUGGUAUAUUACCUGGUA

variants of: B1; assay: self-cleavage, relative activity (ratio to wild type); higher = more cleavage; co-transcriptional
Property: self-cleavage
Please state the value as a number alone, without comment.

[[record]]
seq = "GCCCUCUUUCACGUGCGCGUGAAUGAGAGAAGUGAACCAGAGAAACACACGUUGUGGUAUAUUACCUGGUA [U2C A24U]"
property = "self-cleavage"
number = 0.107

[[record]]
seq = "GUCCUCGUUCACGUGCGCGUUAAAGAGAGAAGUGAACCAGAGAAACACACGUUGUGGUAUAUUACCUGGUA [U7G G21U]"
property = "self-cleavage"
number = 0.453

[[record]]
seq = "GUCCUCUUUCACGUGCGCGUGAAAGAGAGGAGUGAACCAGAGAAACACACGGUGUGGUAUAUUACCUGGUA [A30G U52G]"
property = "self-cleavage"
number = 0.186

[[record]]
seq = "GUCGUCUUUCACGUGCGCGUGAAAGAGAGAAGUCAACCAGAGAAACACACGUUGUGGUAUAUUACCUGGUA [C4G G34C]"
property = "self-cleavage"
number = 1.19

[[record]]
seq = "GUCCUCUUUCACGUGCGCGUGAAAGAGAGACGUCAACCAGAGAAACACACGUUGUGGUAUAUUACCUGGUA [A31C G34C]"
property = "self-cleavage"
number = 0.127


Below: the item to evaluate.
In: What value of measured self-cleavage is listed for GUCCUCUUUCACGUGCGCGUGAAAGAGAGAAGUGAACCAGCGAAACACACGUUGUGUUAUAUUACCUGGUA [A41C G57U] ?
Out: 0.502
